System: SK-OV-3
ASSAY_REMARKS: NCI tumour cell line growth inhibition, 48 h
Calls of active or inactive are those of the source. Cut-off read from the data, not from the text of the source: active = GI50 up to about 1.1 µM and inactive = higher.
What GI50 was measured for each of the following?

[[record]]
compound = "CC1CC[C@]2(C(=O)O)CCC3(C)C(=CC(=O)C4[C@@]5(C)CCC(=O)C(C)(C)C5CC[C@]43C)[C@@H]2[C@H]1C (stereo partly specified)"
measured_value = "34.5 µM (inactive)"

[[record]]
compound = "CC/C(C)=C1\\OC(=O)C(C)C(O)C(Cc2cccnc2)NC(=O)C(NC(=O)c2ncccc2O)C(C)OC1=O (stereo unspecified)"
measured_value = "71.9 µM (inactive)"

[[record]]
compound = "CC1(C)C(=O)C(C)(C)C1=NNC(N)=S"
measured_value = "> 100 µM (inactive)"

[[record]]
compound = "NC(=S)N/N=C(/CC(=O)c1ccccc1)C(=O)Nc1ccc(Cl)c(Cl)c1"
measured_value = "> 100 µM (inactive)"


For each listed entry, give its GI50.
1. O=c1cccccc1NCCOCCNc1cccccc1=O
2. O=c1c2nn[nH]c2nc2n1CC(c1ccccc1)S2 (stereo unspecified)
3. C=CCn1c2ccccc2c2c(C)c3cnccc3c(C)c21

[out]
1. > 100 µM (inactive)
2. > 100 µM (inactive)
3. 5.9 µM (inactive)

For each listed entry, give its GI50.
1. O=C(/C=C/c1ccc2ccccc2c1)NCc1ccc(C(=O)NCc2ccccc2)cc1
2. NC(=S)N/N=C(\CC1OC(=O)c2ccccc21)c1ccc(Cl)cc1 (stereo unspecified)
3. CC(=O)c1cc(C)n2c1CS[C@@H]2c1ccccc1
4. CN(C)CCNC(=O)c1cccc2c(NC(CCCNC(=N)N)C(=O)O)c3ccccc3nc12 (stereo unspecified)

[out]
["> 100 µM (inactive)", "42.8 µM (inactive)", "> 100 µM (inactive)", "12.6 µM (inactive)"]
